Source: patent US8063221B2

Provide the recorded MIC for the entries that follow.
# Test system: S. aureus Smith
# method summary: Antibacterial activity (MIC), S. aureus
# Assay type: cell-based
# assay context: Staphylococcus aureus, Table 1; read-out: Antibacterial MIC (μM) S. aureus Smith

Example cases with answers are listed next.
compound | MIC
Nc1c(F)c(NCCNc2cccc3ccccc23)c(F)c2c1c(=O)ccn2CCc1ccccc1 [compound 64] | 10 to 50 µM
Nc1c(F)c(NCCc2ccncc2)c(F)c2c1c(=O)c(C(=O)O)cn2C1CC1 [compound 3] | < 0.5 µM
Nc1c(F)c(NCCNc2ccccn2)c(F)c2c1c(=O)ccn2C1CCCC1 [compound 76] | > 50 µM

# map each compound to its MIC
1. Nc1c(F)c(NCCCc2ccccc2)c(F)c2c1c(=O)ccn2C1CCCC1 [compound 72]
2. COc1c(NCCc2ccncc2)c(F)c(N)c2c(=O)c(C(=O)O)cn(C3CC3)c12 [compound 68]
3. CC(C)(C)OC(=O)NCCNc1c(F)c(N)c2c(=O)c(C(=O)O)cn(C3CC3)c2c1F [compound 21]
4. Nc1c(F)c(NCCc2ccncc2)c(F)c2c1c(=O)ccn2C1CC1 [compound 11]
5. Nc1c(F)c(NCCCc2ccccc2)c(F)c2c1c(=O)ccn2C1CC1 [compound 13]

Marked response:
["10 to 50 µM", "0.5 to 10 µM", "0.5 to 10 µM", "> 50 µM", "10 to 50 µM"]
